- System: EKVX
- experiment: NCI 60 cell line screen
- Format: cell-based
- reportedConditions: Non-Small Cell Lung Cancer, single concentration 10^−5 M

{"columns": ["compound", "displayUnit", "Growth %"],
 "data": [
  ["COc1cc(-c2cc(-c3c[nH]c4ccccc34)nc(-c3c[nH]c4ccccc34)c2C#N)cc(OC)c1OC [4g]", "%", 87.27],
  ["N#Cc1c(-c2ccc(O)cc2)cc(-c2c[nH]c3ccccc23)nc1-c1c[nH]c2ccccc12 [4j]", "%", 100.08],
  ["N#Cc1c(-c2ccc(Br)cc2)cc(-c2c[nH]c3ccccc23)nc1-c1c[nH]c2ccccc12 [4b]", "%", 85.89],
  ["COc1cc(OC)cc(-c2cc(-c3c[nH]c4ccccc34)nc(-c3c[nH]c4ccccc34)c2C#N)c1 [4f]", "%", 91.45],
  ["N#Cc1c(-c2ccc(F)cc2)cc(-c2c[nH]c3ccccc23)nc1-c1c[nH]c2ccccc12 [4d]", "%", 92.76],
  ["N#Cc1c(-c2ccc([N+](=O)[O-])cc2)cc(-c2c[nH]c3ccccc23)nc1-c1c[nH]c2ccccc12 [4h]", "%", 82.20],
  ["COc1ccc(-c2cc(-c3c[nH]c4ccccc34)nc(-c3c[nH]c4ccccc34)c2C#N)cc1 [4e]", "%", 91.11],
  ["N#Cc1c(-c2ccccc2)cc(-c2c[nH]c3ccccc23)nc1-c1c[nH]c2ccccc12 [4a]", "%", 83.07],
  ["N#Cc1c(-c2ccc(Cl)cc2)cc(-c2c[nH]c3ccccc23)nc1-c1c[nH]c2ccccc12 [4c]", "%", 87.50],
  ["CN(C)c1ccc(-c2cc(-c3c[nH]c4ccccc34)nc(-c3c[nH]c4ccccc34)c2C#N)cc1 [4i]", "%", 93.75]
]}
